# measurement.description: Cmax in ICR mouse at 50 mg/kg, po administered as single dose measured for 24 hrs by HPLC analysis
# Assay type: ADME, organism-based
# Set-up: dose 50 mg/kg, route oral
# particulars: in vivo
Label True for high-side Cmax (at or above 2000 ng/mL) and False for low-side Cmax (below it).

{"smiles.data": "CCc1nc2ccc(Cl)cn2c1C(=O)NCCOc1ccc(N2CCN(c3ccc(F)cc3)CC2)cc1", "assigned.class": "True"}
{"smiles.data": "CCc1nc2ccc(Br)cn2c1C(=O)NCCOc1ccc(N2CCCCC2)cc1", "assigned.class": "False"}
{"smiles.data": "CCc1nc2ccc(Br)cn2c1C(=O)NCCOc1ccc(N2CCC(C(F)(F)F)CC2)cc1", "assigned.class": "True"}
{"smiles.data": "CCc1nc2ccc(Cl)cn2c1C(=O)NCCOc1ccc(N(C)C)cc1", "assigned.class": "True"}
{"smiles.data": "COc1ccc2nc(C)c(C(=O)NCCOc3ccc(N4CCC(C(F)(F)F)CC4)cc3)n2c1", "assigned.class": "False"}

###

# Test system: Mycobacterium tuberculosis
# measurement.description: Antitubercular activity against Mycobacterium tuberculosis H37Rv ATCC 27294 assessed as parasite growth inhibition measured after 7 days incubation by microplate alamar blue assay
# Format: functional
# particulars: H37Rv ATCC 27294, 168 h
observation.type: MIC

{"compound": "O=C(NCCOc1ccc(Br)cc1)c1c(C2CC2)nc2cc(Cl)ccn12", "assay.value": "32 µg/mL"}
{"compound": "O=C(NCCOc1ccc(Cl)cc1)c1c(C2CC2)nc2cc(Cl)ccn12", "assay.value": "32 µg/mL"}
{"compound": "CCCc1nc2ccc(C)cn2c1C(=O)NCCOc1ccc(Br)cc1", "assay.value": "0.415 µg/mL"}
{"compound": "CCc1nc2ccc(Br)cn2c1C(=O)NCCOc1ccc(N2CC3CCCCC3C2)cc1 (stereo unspecified)", "assay.value": "0.0625 µg/mL"}
{"compound": "CCc1nc2ccc(Br)cn2c1C(=O)NCCOc1ccc(N2CCC(C(F)(F)F)CC2)cc1", "assay.value": "0.0625 µg/mL"}
{"compound": "Cc1ccn2c(C(=O)NCCOc3ccc(Br)cc3)c(C)nc2c1", "assay.value": "0.463 µg/mL"}

###

# measurement.description: AUC (0 to infinity) in ICR mouse at 50 mg/kg, po administered as single dose measured for 24 hrs by HPLC analysis
# Format: ADME, organism-based
# Parameters: dose 50 mg/kg, route oral, time infinity
# particulars: in vivo
Param label: returns fulfilled when AUC(0-inf) < 3000 ng·h/mL, returns not fulfilled otherwise, including exact equality.

{"smiles.data": "CCc1nc2ccc(Cl)cn2c1C(=O)NCCOc1ccc(N2CCN(c3ccc(F)cc3)CC2)cc1", "assigned.class": "not fulfilled"}
{"smiles.data": "COc1ccc2nc(C)c(C(=O)NCCOc3ccc(N4CCC(C(F)(F)F)CC4)cc3)n2c1", "assigned.class": "fulfilled"}
{"smiles.data": "CCc1nc2ccc(Br)cn2c1C(=O)NCCOc1ccc(N2CCCCC2)cc1", "assigned.class": "fulfilled"}
{"smiles.data": "CCc1nc2ccc(Br)cn2c1C(=O)NCCOc1ccc(N2CCC(C(F)(F)F)CC2)cc1", "assigned.class": "not fulfilled"}
{"smiles.data": "CCc1nc2ccc(Cl)cn2c1C(=O)NCCOc1ccc(N(C)C)cc1", "assigned.class": "not fulfilled"}

###

# measurement.description: Half-life in human hepatocytes
# Assay type: ADME, cell-based, Hepatocyte
Recorded half-life by entry

{"smiles.data": "COc1ccc2nc(C)c(C(=O)NCCOc3ccc(Br)cc3)n2c1", "half-life": "54.2 min"}
{"smiles.data": "Cc1ccc2nc(C)c(C(=O)NCCOc3ccc(Br)cc3)n2c1", "half-life": "6.5 min"}
{"smiles.data": "CCc1nc2ccc(Cl)cn2c1C(=O)NCCOc1ccc(Cl)cc1", "half-life": "12.9 min"}
{"smiles.data": "CCc1nc2ccc(Br)cn2c1C(=O)NCCOc1ccc(Br)cc1", "half-life": "15.8 min"}
{"smiles.data": "COc1ccc(OCCNC(=O)c2c(C3CC3)nc3ccc(C)cn23)cc1", "half-life": "7.8 min"}
{"smiles.data": "CCc1nc2ccc(C)cn2c1C(=O)NCCOc1ccc(OC)cc1", "half-life": "19.5 min"}
{"smiles.data": "CCc1nc2ccc(Cl)cn2c1C(=O)NCCOc1ccc(Br)cc1", "half-life": "35.2 min"}
